Hi there, I'd appreciate the recorded Cmax for every entry that follows.
# Procedure Text: Pharmacokinetics of compounds 1–11 in rat plasma (UPLC-TQ/MS) after oral administration of HYD and plus-minus Haizao/Gancao decoctions
# Type: in vivo, Wistar rats (PTU-induced model of hypothyroidism)
# Test Context: Wistar, 11 mL/kg, group HYD-HZ (HYD minus Haizao), 11 mL/kg intragastrically, model rats, n = 6, mean ± S.D.
One number for each entry, in ng/mL.

INSERT INTO results (molecular_string, measured_number) VALUES
  ('O=C1C[C@@H](c2ccc(O[C@@H]3O[C@H](CO)[C@@H](O)[C@H](O)[C@H]3O)cc2)Oc2cc(O)ccc21', 494);

Would you mind giving Cmax for every compound in the list below?
1. CC1(C)[C@@H](O[C@H]2O[C@H](C(=O)O)[C@@H](O)[C@H](O)[C@H]2O[C@@H]2O[C@H](C(=O)O)[C@@H](O)[C@H](O)[C@H]2O)CC[C@]2(C)[C@H]3C(=O)C=C4[C@@H]5C[C@@](C)(C(=O)O)CC[C@]5(C)CC[C@@]4(C)[C@]3(C)CC[C@@H]12
2. COc1ccc(-c2cc(=O)c3c(OC)c(OC)c(OC)c(OC)c3o2)cc1OC
3. C[C@@H]1O[C@@H](O[C@H]2[C@H](Oc3cc(O)c4c(c3)O[C@H](c3ccc(O)cc3)CC4=O)O[C@H](CO)[C@@H](O)[C@@H]2O)[C@H](O)[C@H](O)[C@H]1O

587
322
463

---

# Procedure Text: Pharmacokinetics of compounds 1–11 in rat plasma (UPLC-TQ/MS) after oral administration of HYD and plus-minus Haizao/Gancao decoctions
# Format: in vivo, Wistar rats (PTU-induced model of hypothyroidism)
# Test Context: Wistar, 12 mL/kg, group HYD, 12 mL/kg intragastrically, model rats, n = 6, mean ± S.D.
Each record is given Satisfied if its reported AUC(0-t) is strictly below 2000 ng·h/mL. Records at or above 2000 ng·h/mL are given Not satisfied.

Use the examples below as a reference point.
INSERT INTO assay_data (molecular_string, class_name) VALUES
  ('C[C@@H]1O[C@@H](O[C@H]2[C@H](Oc3cc(O)c4c(c3)O[C@H](c3ccc(O)cc3)CC4=O)O[C@H](CO)[C@@H](O)[C@@H]2O)[C@H](O)[C@H](O)[C@H]1O', 'Satisfied'),
  ('CC1(C)[C@@H](O[C@H]2O[C@H](C(=O)O)[C@@H](O)[C@H](O)[C@H]2O[C@@H]2O[C@H](C(=O)O)[C@@H](O)[C@H](O)[C@H]2O)CC[C@]2(C)[C@H]3C(=O)C=C4[C@@H]5C[C@@](C)(C(=O)O)CC[C@]5(C)CC[C@@]4(C)[C@]3(C)CC[C@@H]12', 'Satisfied'),
  ('COc1ccc2ccc(=O)oc2c1CC=C(C)C', 'Satisfied'),
  ('COc1ccc(-c2cc(=O)c3c(OC)c(OC)c(OC)c(OC)c3o2)cc1OC', 'Not satisfied'),
  ('O=C1C[C@@H](c2ccc(O[C@@H]3O[C@H](CO)[C@@H](O)[C@H](O)[C@H]3O)cc2)Oc2cc(O)ccc21', 'Satisfied'),
  ('CC1(C)[C@@H](O)CC[C@]2(C)[C@H]3C(=O)C=C4[C@@H]5C[C@@](C)(C(=O)O)CC[C@]5(C)CC[C@@]4(C)[C@]3(C)CC[C@@H]12', 'Not satisfied');

Lab note: next compound to report on.
is_below(AUC(0-t), 2000 ng·h/mL) for COc1c2ccoc2cc2oc(=O)ccc12 ? Satisfied
